tested on: NCI-H522; assay: NCI tumour cell line growth inhibition, 48 h
Active and inactive are the calls of the source. Rule as the data show it: active = GI50 up to about 1.1 µM and inactive = higher.
Tick one outcome: active, inactive

Past entries and their recorded results:
>>> print(df.to_string())
                                compound  qualitative_label
0  Cc1cc(C)cc(Sc2c([N+](=O)[O-])ncn2C)c1           inactive
1                   CNc1ncnc2c1cnn2CCCCO           inactive

[in] Call for entry CCN1CCC(O)(c2ccc(C)cc2)C(C(=O)c2ccc(C)cc2)C1 (stereo not drawn) :
[out] inactive

[in] Hi team, can someone confirm the assay call for `COc1ccc(N(C)Sc2ccccc2)cc1` ?
[out] inactive

----------
system: SK-MEL-5; assay: NCI tumour cell line growth inhibition, 48 h
The source made the active and inactive calls. Cut-off read from the data, not from the text of the source: active = GI50 up to about 1.1 µM and inactive = higher.
Return exactly one item of active, inactive

COMPOUND	SYSTEM NAME	QUALITATIVE LABEL
O=c1[nH]nc(-c2ccccc2)c2[nH]c3c4ccccc4ccc3c12	SK-MEL-5	active
CN1C2CCC1CC(=CCOC(c1ccc(F)cc1)c1ccc(F)cc1)C2	SK-MEL-5	inactive
O=C1c2ccccc2CC12Cc1ccc3c(c1C2)CCC3 (centres undefined)	SK-MEL-5	inactive
C=C(C)[C@H]1[C@@H]2OC(=O)[C@H]1[C@]1(O)C[C@H]3OC34C(=O)O[C@H]2[C@@]41C.CC(C)(O)[C@H]1[C@@H]2OC(=O)[C@H]1[C@]1(O)C[C@H]3OC34C(=O)O[C@H]2[C@@]41C (some centres undefined)	SK-MEL-5	inactive
CCN1C(Cl)=NS(=O)(=O)c2ccccc21	SK-MEL-5	inactive

[in] Give the logged outcome of this assay for the following compound: COC(=O)C1=C(C)N2CCOC2(C)C(C(=O)OC)C1c1ccc[nH]1 (centres undefined)
[out] inactive

[in] For `Cc1ccc(S(=O)(=O)N2CCNCCN(S(=O)(=O)c3ccc(C)cc3)CCNCC2)cc1` , what call appears in the results of this test?
[out] inactive

[in] Hello, I am checking results. What call was entered for N#Cc1c(N)nc2c3c1NC(=O)C(C(N)=O)C3c1ccccc1O2 (centres undefined) ?
[out] inactive

[in] Give the logged outcome of this assay for the following compound: OCC(O)CNc1ccnc2cc(Cl)ccc12 (centres undefined)
[out] inactive

----------
tested on: Malme-3M; assay: NCI tumour cell line growth inhibition, 48 h
Calls of active or inactive are those of the source. Cut-off read from the data, not from the text of the source: active = GI50 up to about 1.1 µM and inactive = higher.
Overview of recorded GI50 for various compounds

Consider the following illustrative entries.
>>> print(df.to_string())
                                   compound  reported_endpoint         assay_result
0          COC(=O)/C=C\n1c(C)cc(=O)[nH]c1=O               GI50  > 100 µM (inactive)
1  O=[N+]([O-])c1ccccc1S(=O)(=O)c1cccc2c1NCCC2               GI50   48.1 µM (inactive)
2         COC(=O)[C@@H]1C=C[C@H](NC(C)=O)C1               GI50  > 100 µM (inactive)
3  CCOC(=O)Cn1c(=O)c2cc(C)cc3c(Cl)nc4c(OC)c(OC)cc1c4c32               GI50   44.2 µM (inactive)
4            CC(=O)Nc1cc([As](=O)(O)O)ccc1O               GI50  > 100 µM (inactive)
5          CCOC(=O)c1cc(I)c(-c2cc(C)no2)n1C               GI50   28.1 µM (inactive)

[in] Check the records and state GI50 for `CN(C)c1ccc2c(c1)C(=O)N(OS(=O)(=O)c1ccc([N+](=O)[O-])cc1)C2=O`
[out] 31.2 µM (inactive)

[in] Identify measured GI50 corresponding to `CC#CS(=O)(=O)c1ccccc1`
[out] 2.88 µM (inactive)

[in] Respond only with GI50 recorded for `O=C1C=CC(=O)c2c1ccc1c3ccccc3n(-c3ccccc3[N+](=O)[O-])c21`
[out] 2.17 µM (inactive)

[in] Please give measured GI50 of the following entry: CCCCC1Cc2cc(O)ccc2-c2n1c1cc(O)ccc1[n+]2C.CCCCC1Cc2cc(O)ccc2-c2n1c1ccc(O)cc1[n+]2C (stereo not given)
[out] 19.5 µM (inactive)
